assay: TRM-201-PK-102 single-dose four-period crossover pharmacokinetic study, fasted healthy subjects; type: in vivo, human; details: human, plasma, oral, 17.5 mg, 102 study, body weight 70.1-77 kg, read-out: arithmetic mean Cmax
ENDPOINT NAME: Cmax

Ask | Name the reported Cmax value associated with the compound "CS(=O)(=O)c1ccc(C2=C(c3ccccc3)C(=O)OC2)cc1"
Reply | 254 ng/mL

###

experiment: TRM-201-PK-102 single-dose four-period crossover pharmacokinetic study, fasted healthy subjects; type: in vivo, human; conditions: human, plasma, oral, 17.5 mg, 102 study, 41-52 years, read-out: arithmetic mean AUC0-∞
ENDPOINT NAME: AUC(0-inf) (ng·h/mL)
State the answer as a number, implicitly in ng·h/mL.

Ask | What does the data say about its AUC(0-inf)? Entry: CS(=O)(=O)c1ccc(C2=C(c3ccccc3)C(=O)OC2)cc1 [TRM-201]
Reply | 3520
